- measurementDescription: Ratio of drug level in brain to plasma in Wistar Han rat at 0.3 mg/kg, iv after 0.25 hrs
- Type: ADME, organism-based
- recordedConditions: read-out: BPR
measuredQuantity: Kp at 0.25 h
Give bare numbers.

Kp at 0.25 h recorded for this compound, COC(=O)N1CCN(C(=O)Cc2ccc(Cl)c(Cl)c2)[C@@H]2[C@@H](N3CCCC3)CCC[C@@H]21.Cl , is 0.5

----------
- Species on record: Rattus norvegicus
- measurementDescription: Displacement of [3H]-DTG from sigma 2 receptor in rat liver membranes at 1 uM after 120 mins by scintillation counting
- Assay type: cell membranes
- recordedConditions: Membrane
Class true: inhibition at least 10%. Class false: inhibition below 10%.

Before answering, review these 2 worked examples.
CCOC(=O)CN1CCN(C(=O)Cc2ccc(Cl)c(Cl)c2)[C@@H]2[C@@H](N3CCCC3)CCC[C@@H]21	true
COC(=O)N1CCN(C(=O)Cc2ccc(Cl)c(Cl)c2)[C@@H]2[C@@H](N3CC[C@H](O)C3)CCC[C@@H]21	true

Query :: For this compound, is measured inhibition 10% or higher? COC(=O)N1CCN(C(=O)Cc2ccc(F)c(Cl)c2)[C@@H]2[C@@H](N3CC[C@H](O)C3)CCC[C@@H]21
Result :: true

Query :: For this compound, is measured inhibition 10% or higher? O=C(Cc1ccc(Cl)c(F)c1)N1CCN(S(=O)(=O)Cc2ccon2)[C@H]2CCC[C@H](N3CC[C@H](O)C3)[C@H]21
Result :: false

Query :: For this compound, is measured inhibition 10% or higher? COC(=O)N1CCN(C(=O)Cc2ccc(Cl)c(Cl)c2)[C@@H]2[C@@H](N3CC[C@@H](O)C3)CCC[C@@H]21
Result :: true

Query :: For this compound, is measured inhibition 10% or higher? CS(=O)(=O)N1CCN(C(=O)Cc2ccc(Cl)c(F)c2)[C@@H]2[C@@H](N3CC[C@H](O)C3)CCC[C@@H]21
Result :: false

Query :: For this compound, is measured inhibition 10% or higher? CN(C)S(=O)(=O)N1CCN(C(=O)Cc2ccc(Cl)c(Cl)c2)[C@@H]2[C@@H](N3CCCC3)CCC[C@@H]21
Result :: false

Query :: For this compound, is measured inhibition 10% or higher? O=C(Cc1ccc(Cl)cc1)N1CCN(S(=O)(=O)Cc2ccon2)[C@H]2CCC[C@H](N3CC[C@H](O)C3)[C@H]21
Result :: false

Query :: For this compound, is measured inhibition 10% or higher? CS(=O)(=O)N1CCN(C(=O)Cc2ccc(Cl)c(Cl)c2)[C@@H]2[C@@H](N3CCCC3)CCC[C@@H]21
Result :: false

Query :: For this compound, is measured inhibition 10% or higher? CNC(=O)C(=O)N1CCN(C(=O)Cc2ccc(Cl)c(Cl)c2)[C@@H]2[C@@H](N3CCCC3)CCC[C@@H]21
Result :: false

Query :: For this compound, is measured inhibition 10% or higher? COC(=O)N1CCN(C(=O)Cc2ccc(Cl)c(Cl)c2)[C@@H]2[C@@H](N(C)C)CCC[C@@H]21
Result :: false

Query :: For this compound, is measured inhibition 10% or higher? CC(C)NC(=O)N1CCN(C(=O)Cc2ccc(Cl)c(Cl)c2)[C@@H]2[C@@H](N3CCCC3)CCC[C@@H]21
Result :: false

Query :: For this compound, is measured inhibition 10% or higher? COC(=O)N1CCN(C(=O)Cc2cccc(Cl)c2)[C@@H]2[C@@H](N3CC[C@H](O)C3)CCC[C@@H]21
Result :: false

Query :: For this compound, is measured inhibition 10% or higher? COC(=O)N1CCN(C(=O)Cc2ccc(Cl)cc2)[C@@H]2[C@@H](N3CC[C@H](O)C3)CCC[C@@H]21
Result :: true
